# experimental-conditions: in NMP, 293.15 K
reported-property: solubility (mole fraction)

1) COC(=O)Nc1nc2ccc(C(=O)c3ccc(F)cc3)cc2[nH]1 :: 0.00103

----------
# experimental-conditions: in n-butanol, 303.15 K
reported-property: solubility (mole fraction)

1) COC(=O)Nc1nc2ccc(C(=O)c3ccc(F)cc3)cc2[nH]1 :: 5.64e-05

----------
# experimental-conditions: in methanol, 323.15 K
reported-property: solubility (mole fraction)

1) COC(=O)Nc1nc2ccc(C(=O)c3ccc(F)cc3)cc2[nH]1 :: 1.17e-05
